The reported measurements were obtained from the supplement of paper PMC11780869.

Assignment: determine reported cleaved RNA product abundance for the given sequences.
tested on: Bacillus subtilis; assay: cleaved RNA product abundance (RNA/gDNA barcode ratio) relative to median wild-type variant (ratio to wild type); higher = more accumulation of the downstream cleavage product; details: experiment (reporter, strain, medium): exp 4a: truncated aprE reporter, strain BJT201 with 2% xylose (RNase J1 expressed); cleavage site: cggR-gapA (positions -7 to +36 mutated)
Answers are plain numbers.

State recorded cleaved RNA product abundance for all listed sequences.
1. ACAGACGAAGGAGCCGCAAAGAAGTTATTAATGGATGAATAATCCCTCGATATAAATATCTCTCACTTATTTAAA
2. ACAGACGAAGGAGCCGCAAAGAAAGTTATTAAGGGATGAATAATCCCTCAATATAAATATCTCTCACTTATTTAA
3. ACAGACGAAGGAGCCGCAAATAAATTATTAAGGGATGAATAATCCCTCAATATAAATATCTCTCACTTATTTAAA
4. ACAGACGAAGGAGCCGCAAAGAAGTTAATAAGGGATAAATAATCCCTCAATATAAATATCTCTCACTTATTTAAA
5. ACAGACGAAGGAGCCGCAAAGAAGTCATAAAGGGATGAATAATCCCTCAATATAAATATCTCTCACTTATTTAAA
6. ACAGACGAAGGAGCCGCAAAGAAGTTTTTAAGGGAAGAATAATCCCTCAATATAAATATCTCTCACTTATTTAAA

### Response
1: 0.116; 2: 0.775; 3: 0.801; 4: 0.382; 5: 0.198; 6: 0.149

State recorded cleaved RNA product abundance for all listed sequences.
1. ACAGACGAAGGAGCCGCAAAGAAGTTATTAAGGGATGAATACTCCATCAATATAAATATCTCTCACTTATTTAAA
2. ACAGACGAAGGAGCCGCAAAGAAGTTATTAAGAGATGAATAATACCTCAATATAAATATCTCTCACTTATTTAAA
3. ACAGACGAAGGAGCCGCAAATAAGTTATTAAGAGATGAATAATCCCTCAATATAAATATTTCTCACTTATTTAAA
4. ACAGACGAAGGAGCCGCAAAGAAGTTATTAAGGGATGAATAATCCCTCAATATGAATATCTCTCACTTATTTAAA

### Response
1. 0.137
2. 0.109
3. 0.124
4. 0.102

###

test system: Bacillus subtilis; assay: cleaved RNA product abundance (RNA/gDNA barcode ratio) relative to median wild-type variant (ratio to wild type); higher = more accumulation of the downstream cleavage product; settings: experiment (reporter, strain, medium): exp 4a: truncated aprE reporter, strain BJT201 with 2% xylose (RNase J1 expressed); cleavage site: cggR-gapA (positions -7 to +36 mutated)
metric: cleaved RNA product abundance
Answers are plain numbers.

Record excerpt, results attached:
> print(dat)
                           polymer.sequence                         metric  numeric.result
1  ACAGACGAAGGAGCCGCAAATAAGTTATTAAGGGATGAATAATCGCTCAATATAAATATCTCTCACTTATTTAAA  cleaved RNA product abundance           0.121
2  ACAGACGAAGGAGCCGCAAAAAAGTTATTAAGGGATGAATAATCCCTCAATATAAATAACTCTCACTTATTTAAA  cleaved RNA product abundance            1.13
3  ACAGACGAAGGAGCCGCAAAAAAGTTATTAAGAGATGAATAATCCCTCAATATAAATATCTCTCACTTATTTAAA  cleaved RNA product abundance           0.133
4  ACAGACGAAGGAGCCGCAAAGAAGTTATTAAGTGATGAATAATCCCTCAAAATAAATATCTCTCACTTATTTAAA  cleaved RNA product abundance           0.124

Turning now to a further record.
### Prompt Quick one: cleaved RNA product abundance for ACAGACGAAGGAGCCGCAAAGAAGTTATGAAGGGATGAATAATCCCTCAATATACATATCTCTCACTTATTTAAA ?
### Response 0.344
